details: Patient ID 143, CYP2D6 functional group IM/IM
value.type: plasma concentration (ng/mL)

Example results:
| compound | u | plasma concentration |
| --- | --- | --- |
| CC/C(=C(\c1ccccc1)c1ccc(OCCN(C)C)cc1)c1ccc(O)cc1 | ng/mL | 6.28 |
| CCC(=C(c1ccccc1)c1ccc(OCCNC)cc1)c1ccc(O)cc1 | ng/mL | 11.042 |

1 = CC/C(=C(/c1ccc(OCCNC)cc1)c1ccc(O[C@@H]2O[C@H](C(=O)O)[C@@H](O)[C@H](O)[C@H]2O)cc1)c1ccccc1
2 = CC/C(=C(\c1ccccc1)c1ccc(OCCN(C)C)cc1)c1ccccc1
3 = CC(O)C(=C(c1ccccc1)c1ccc(OCCN(C)C)cc1)c1ccccc1 (racemic) [(E)-a-OH-Tam]
Enquiry: Sequence the entries by plasma concentration, beginning with the highest number. Output the labels ranked as instructed.
Return: 2, 1, 3

a = CC/C(=C(\c1ccc(O)cc1)c1ccc(OCCNC)cc1)c1ccccc1 [(Z)-Endoxifen 3-OH-NDM-Tam]
b = CC(O)C(=C(c1ccccc1)c1ccc(OCCN(C)C)cc1)c1ccccc1 (racemic) [(Z)-a-OH-Tam]
Enquiry: Pick one: a or b . Which has the bigger plasma concentration number? Please indicate the selected item by its label.
Return: a
(a: 5.26 ng/mL, b: 0.062 ng/mL)

====

details: Patient ID 207, CYP2D6 functional group IM/IM
value.type: plasma concentration (ng/mL)

Record excerpt, results attached:
| compound | value.type | test.value |
| --- | --- | --- |
| CCC(=C(c1ccccc1)c1ccc(OCCNC)cc1)c1ccc(O)cc1 | plasma concentration | 2.895 |
| CC/C(=C(\c1ccc(O)cc1)c1ccc(OCCNC)cc1)c1ccccc1 [(Z)-Endoxifen 3-OH-NDM-Tam] | plasma concentration | 1.83 |

1 = CC/C(=C(\c1ccccc1)c1ccc(OCCN(C)C)cc1)c1ccc(O)cc1
2 = CC/C(=C(/c1ccc(OCCNC)cc1)c1ccc(O[C@@H]2O[C@H](C(=O)O)[C@@H](O)[C@H](O)[C@H]2O)cc1)c1ccccc1
Enquiry: Look at 1 and 2 . Which one has the lower recorded plasma concentration number? Provide the label of your selected option as the answer.
Return: 2
(2: 0.551 ng/mL, 1: 1.81 ng/mL)

====

details: Patient ID 195, CYP2D6 functional group PM/PM
value.type: plasma concentration (ng/mL)

A = CC/C(=C(\c1ccccc1)c1ccc(OCCN(C)C)cc1)c1ccccc1
B = CCC(=C(c1ccccc1)c1ccc(OCCNC)cc1)c1ccc(O)cc1
C = CC/C(=C(\c1ccc(O)cc1)c1ccc(OCCNC)cc1)c1ccccc1 [(Z)-Endoxifen 3-OH-NDM-Tam]
D = CC/C(=C(/c1ccc(OCCNC)cc1)c1ccc(O[C@@H]2O[C@H](C(=O)O)[C@@H](O)[C@H](O)[C@H]2O)cc1)c1ccccc1
E = CC/C(=C(\c1ccccc1)c1ccc(OCCN(C)C)cc1)c1ccc(O)cc1
Enquiry: Returns the items ordered by plasma concentration, from maximum to minimum. The labels, placed in the requested order, form the answer.
Return: A, B, E, C, D

====

conditions: Patient ID 121, CYP2D6 functional group EM/EM
value.type: plasma concentration (ng/mL)

// worked examples, plasma concentration included
| compound | plasma concentration, ng/mL |
| --- | --- |
| CC/C(=C(\c1ccccc1)c1ccc(OCCN(C)C)cc1)c1ccc(O)cc1 | 3.97 |
| CC/C(=C(\c1ccc(O)cc1)c1ccc(OCCNC)cc1)c1ccccc1 [(Z)-Endoxifen 3-OH-NDM-Tam] | 9.27 |
| CC(O)C(=C(c1ccccc1)c1ccc(OCCN(C)C)cc1)c1ccccc1 (racemic) [(Z)-a-OH-Tam] | 0.118 |
| CCC(=C(c1ccccc1)c1ccc(OCCNC)cc1)c1ccc(O)cc1 | 3.429 |
| CC(O)C(=C(c1ccccc1)c1ccc(OCCN(C)C)cc1)c1ccccc1 (racemic) [(E)-a-OH-Tam] | 0.381 |

1 = CC/C(=C(\c1ccccc1)c1ccc(OCCN(C)C)cc1)c1ccccc1
2 = CC/C(=C(/c1ccc(OCCNC)cc1)c1ccc(O[C@@H]2O[C@H](C(=O)O)[C@@H](O)[C@H](O)[C@H]2O)cc1)c1ccccc1
Enquiry: Quick one: lower plasma concentration, 1 or 2 ? Return value: the label identifying the chosen record.
Return: 2
(2: 4.222 ng/mL, 1: 291.31 ng/mL)

====

conditions: Patient ID 208, CYP2D6 functional group EM/EM
value.type: plasma concentration (ng/mL)

Study these solved cases before continuing.
| molecule | value.type | test.value |
| --- | --- | --- |
| CC/C(=C(\c1ccccc1)c1ccc(OCCN(C)C)cc1)c1ccc(O)cc1 [4'-OH-Tam] | plasma concentration | 2.30 |
| CC/C(=C(/c1ccc(OCCNC)cc1)c1ccc(O[C@@H]2O[C@H](C(=O)O)[C@@H](O)[C@H](O)[C@H]2O)cc1)c1ccccc1 [4-OH-NDM-Tam-Gluc] | plasma concentration | 2.032 |

I = CCC(=C(c1ccccc1)c1ccc(OCCNC)cc1)c1ccc(O)cc1 [4'-OH-NDM-Tam]
II = CC/C(=C(\c1ccc(O)cc1)c1ccc(OCCNC)cc1)c1ccccc1 [(Z)-Endoxifen 3-OH-NDM-Tam]
Enquiry: Of I and II , which shows the smaller plasma concentration value? Kindly state the label of the option you pick.
Return: I

====

conditions: Patient ID 133, CYP2D6 functional group EM/IM
value.type: plasma concentration (ng/mL)

1 = CC/C(=C(/c1ccc(OCCNC)cc1)c1ccc(O[C@@H]2O[C@H](C(=O)O)[C@@H](O)[C@H](O)[C@H]2O)cc1)c1ccccc1
2 = CC/C(=C(\c1ccccc1)c1ccc(OCCN(C)C)cc1)c1ccc(O)cc1
3 = CC/C(=C(\c1ccc(O)cc1)c1ccc(OCCNC)cc1)c1ccccc1 [(Z)-Endoxifen 3-OH-NDM-Tam]
Enquiry: Lab note: plasma concentration ranking, ascending, for the listed molecules. Put the labels in the requested order and list them out.
Return: 1, 2, 3
(1: 0.670 ng/mL, 2: 4.62 ng/mL, 3: 8.59 ng/mL)

====

conditions: Patient ID 161, CYP2D6 functional group EM/EM
value.type: plasma concentration (ng/mL)

| molecule | plasma concentration (ng/mL) |
| --- | --- |
| CC/C(=C(\c1ccccc1)c1ccc(OCCN(C)C)cc1)c1ccc(O)cc1 | 2.20 |

P = CC/C(=C(\c1ccc(O)cc1)c1ccc(OCCNC)cc1)c1ccccc1 [(Z)-Endoxifen 3-OH-NDM-Tam]
Q = CCC(=C(c1ccccc1)c1ccc(OCCNC)cc1)c1ccc(O)cc1
R = CC/C(=C(/c1ccc(OCCNC)cc1)c1ccc(O[C@@H]2O[C@H](C(=O)O)[C@@H](O)[C@H](O)[C@H]2O)cc1)c1ccccc1
S = CC/C(=C(\c1ccccc1)c1ccc(OCCN(C)C)cc1)c1ccccc1
Enquiry: Exam item: list the entries in increasing order of plasma concentration. Return value: ordered labels per request.
Return: R, P, Q, S

====

details: Patient ID 185, CYP2D6 functional group EM/EM
value.type: plasma concentration (ng/mL)

| compound | u | test.value |
| --- | --- | --- |
| CC/C(=C(\c1ccccc1)c1ccc(OCCN(C)C)cc1)c1ccc(O)cc1 | ng/mL | 2.00 |
| CCC(=C(c1ccccc1)c1ccc(OCCNC)cc1)c1ccc(O)cc1 | ng/mL | 2.162 |

A = CC/C(=C(\c1ccc(O)cc1)c1ccc(OCCNC)cc1)c1ccccc1 [(Z)-Endoxifen 3-OH-NDM-Tam]
B = CC/C(=C(/c1ccc(OCCNC)cc1)c1ccc(O[C@@H]2O[C@H](C(=O)O)[C@@H](O)[C@H](O)[C@H]2O)cc1)c1ccccc1
C = CC/C(=C(\c1ccccc1)c1ccc(OCCN(C)C)cc1)c1ccccc1
Enquiry: Ordering: ascending plasma concentration. When ranking, write the labels in the order the request describes.
Return: B, A, C

====

conditions: Patient ID 148, CYP2D6 functional group EM/UM
value.type: plasma concentration (ng/mL)

Some solved entries appear below for comparison.
| compound | plasma concentration, ng/mL |
| --- | --- |
| CC/C(=C(/c1ccc(OCCNC)cc1)c1ccc(O[C@@H]2O[C@H](C(=O)O)[C@@H](O)[C@H](O)[C@H]2O)cc1)c1ccccc1 | 1.572 |
| CC/C(=C(\c1ccccc1)c1ccc(OCCN(C)C)cc1)c1ccccc1 | 152.21 |

a = CC/C(=C(\c1ccc(O)cc1)c1ccc(OCCNC)cc1)c1ccccc1 [(Z)-Endoxifen 3-OH-NDM-Tam]
b = CC(O)C(=C(c1ccccc1)c1ccc(OCCN(C)C)cc1)c1ccccc1 (racemic) [(Z)-a-OH-Tam]
Enquiry: Higher plasma concentration between a and b ? The response must carry the label of the picked entry.
Return: a

====

details: Patient ID 184, CYP2D6 functional group PM/PM
value.type: plasma concentration (ng/mL)

Here's what some known entries look like.
| compound | test.value |
| --- | --- |
| CCC(=C(c1ccccc1)c1ccc(OCCNC)cc1)c1ccc(O)cc1 | 6.339 |
| CC/C(=C(\c1ccccc1)c1ccc(OCCN(C)C)cc1)c1ccc(O)cc1 | 2.90 |
| CC/C(=C(\c1ccccc1)c1ccc(OCCN(C)C)cc1)c1ccccc1 | 214.21 |

I = CC/C(=C(/c1ccc(OCCNC)cc1)c1ccc(O[C@@H]2O[C@H](C(=O)O)[C@@H](O)[C@H](O)[C@H]2O)cc1)c1ccccc1
II = CC/C(=C(\c1ccc(O)cc1)c1ccc(OCCNC)cc1)c1ccccc1 [(Z)-Endoxifen 3-OH-NDM-Tam]
Enquiry: Could you tell me which of I and II has the lower plasma concentration reading? Field: selected label. Fill in the label of the entry you choose.
Return: I
